// cross-study collection: pIC50 for Cyclin-dependent kinase 9 (Homo sapiens, UniProt P50750)
pIC50: −log10 of the molar value.

Solved cases (5 shown):
[
  {
    "MOLECULE": "COc1cc(C(=O)Nc2ccc(NC(=O)c3ccccc3)cc2)ccc1O",
    "ASSAYED_TARGET": "Cyclin-dependent kinase 9 (Homo sapiens, UniProt P50750)",
    "pIC50": "< 4.52"
  },
  {
    "MOLECULE": "O=C(Nc1ccc(NC(=O)c2ccccn2)cc1)c1ccc(O)c([N+](=O)[O-])c1",
    "ASSAYED_TARGET": "Cyclin-dependent kinase 9 (Homo sapiens, UniProt P50750)",
    "pIC50": "< 4.52"
  },
  {
    "MOLECULE": "Cc1nc(NCc2c(F)cccc2F)c2c(-c3ccnc(N)n3)c[nH]c2n1",
    "ASSAYED_TARGET": "Cyclin-dependent kinase 9 (Homo sapiens, UniProt P50750)",
    "pIC50": "< 5.00"
  },
  {
    "MOLECULE": "O=C(CN1CCC(NC(=O)c2n[nH]cc2NC(=O)c2c(Cl)cccc2Cl)CC1)NO",
    "ASSAYED_TARGET": "Cyclin-dependent kinase 9 (Homo sapiens, UniProt P50750)",
    "pIC50": "> 7.00"
  },
  {
    "MOLECULE": "Nc1cc(Br)c(Br)cc1NC(=O)c1ccc(NC(=O)c2n[nH]cc2NC(=O)c2c(F)cccc2F)cc1",
    "ASSAYED_TARGET": "Cyclin-dependent kinase 9 (Homo sapiens, UniProt P50750)",
    "pIC50": "> 7.00"
  }
]

QUERY: Need pIC50 of `Cc1cccc(-c2ccnc(Nc3ccc4c(c3)N(C(C)C)[C@H](C)C(=O)N4C)n2)c1` , thanks.
RESULT: 6.71

QUERY: Same question for `O=C(Cc1ccc(-c2ccccc2)cc1)Nc1cc(C2CCC2)[nH]n1` please.
RESULT: 6.04

QUERY: Same question for `Nc1ccccc1NC(=O)c1ccc(NC(=O)c2n[nH]cc2NC(=O)c2c(Cl)cccc2Cl)cc1` please.
RESULT: > 7.00

QUERY: Same question for `CC(C)N1c2cc(Nc3ncc(F)c(-c4cncc5ccccc45)n3)ccc2N(C)C(=O)[C@H]1C` please.
RESULT: 7.62

QUERY: Same question for `Nc1cc(Cl)c(Cl)cc1NC(=O)c1ccc(NC(=O)c2n[nH]cc2NC(=O)c2c(Cl)cccc2Cl)cc1` please.
RESULT: > 7.00

QUERY: Same question for `O=C(CNC(=O)c1n[nH]cc1NC(=O)c1c(Cl)cccc1Cl)NO` please.
RESULT: > 7.00
